Hey, just so you know, these numbers are from patent US20240043427A1.

Molecular target: CD73 (Homo sapiens (Human), UniProt P21589)
Sequence (P21589 27-574): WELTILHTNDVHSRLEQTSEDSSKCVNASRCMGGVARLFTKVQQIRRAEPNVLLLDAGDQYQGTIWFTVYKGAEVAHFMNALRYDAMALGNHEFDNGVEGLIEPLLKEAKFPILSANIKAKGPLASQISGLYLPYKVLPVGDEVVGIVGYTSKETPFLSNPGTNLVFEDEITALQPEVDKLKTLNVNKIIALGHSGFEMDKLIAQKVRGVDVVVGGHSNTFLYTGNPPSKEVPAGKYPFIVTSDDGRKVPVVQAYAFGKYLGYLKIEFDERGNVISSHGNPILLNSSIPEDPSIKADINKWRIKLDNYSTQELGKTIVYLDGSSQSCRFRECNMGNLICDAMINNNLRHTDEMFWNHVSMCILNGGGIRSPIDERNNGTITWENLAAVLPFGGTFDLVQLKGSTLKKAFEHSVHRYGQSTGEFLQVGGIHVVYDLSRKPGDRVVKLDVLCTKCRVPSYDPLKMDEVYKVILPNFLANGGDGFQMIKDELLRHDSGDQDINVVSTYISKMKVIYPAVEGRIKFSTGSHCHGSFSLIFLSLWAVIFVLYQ
Type: biochemical
Conditions: 1 mM NaH2PO4 in enzyme buffer, CD73 0.3 nM, AMP 15 uM
pIC50: −log10 of the molar value.
Rule: true (1) for pIC50 not less than 8, false (0) for anything less.

- O=c1[nH]cc(-c2cc([C@H]3C[C@@H]3c3ccn4c(C(F)(F)F)ncc4c3)c3nccn3n2)c(=O)[nH]1 (racemic) [Example 625]: true (1)
- O=c1[nH]cc(-c2cc([C@H]3C[C@@H]3c3ccc4c(F)nn(CC(F)(F)F)c4c3)c3ncc(F)n3n2)c(=O)[nH]1 [Example 697]: true (1)
- O=c1[nH]cc(-c2cc(N3CC(F)(F)C(F)(F)C3)n3nccc3n2)c(=O)[nH]1 [Example 358]: false (0)
- O=C(c1cccc([C@H]2C[C@@H]2c2cc(-c3c[nH]c(=O)[nH]c3=O)nn3ccnc23)c1)N1CC(F)(F)C1 (racemic) [Example 297]: true (1)
- C[C@@H](CNc1cc(-c2c[nH]c(=O)[nH]c2=O)nn2ccnc12)c1ccccc1 [Example 500]: false (0)
- O=c1[nH]cc(-c2cc(N3CC(OCC(F)F)C(F)(F)C3)c3nccn3n2)c(=O)[nH]1 (stereo not shown) [Example 524]: true (1)
- COC[C@@H]1CCCN1c1cc(-c2c[nH]c(=O)[nH]c2=O)nn2ccnc12 [Example 477]: false (0)
- O=c1[nH]cc(-c2cc([C@H]3C[C@@H]3c3ccc4c(F)nn(CC(F)(F)F)c4c3)c3ncc(Cl)n3n2)c(=O)[nH]1 (racemic) [Example 213]: true (1)
- O=C(NC12CC(C1)C2)O[C@H]1CN(c2cc(-c3c[nH]c(=O)[nH]c3=O)nn3ccnc23)CC1(F)F [Example 551]: true (1)
- O=c1[nH]cc(-c2cc(N3CC4CCC3CC4)c3nccn3n2)c(=O)[nH]1 [Example 647]: false (0)

Kindly consider the entry below.
# bool: pIC50 of O=c1[nH]cc(-c2cc(N3CC(O)C4(CC4)C3)c3nccn3n2)c(=O)[nH]1 (stereo not shown) [Example 344] >= 8 false (0)
